target_or_test_system: recombinant human DPP-1 (Cathepsin C) (Homo sapiens)
assay_details: DPP-1 Inhibition Assay (In Vitro), fluorogenic substrate GR-AMC
stated_conditions: 0.15 nM DPP-1, 10 uM GR-AMC, pH 7.0, room temperature; average value where tested multiple times
Counter-ions that a name gives are not always drawn.
We label by threshold. Values of IC50 strictly beneath 100 nM are t. Values of 100 nM and up are f.

These solved cases illustrate the format of a correct answer.
CC[C@H](N)C(=O)N1CCC(C(=O)NC2CCCCC2)(c2ccccc2)CC1 : f
N[C@@H](Cc1cccs1)C(=O)N1CCC(Cc2cccc(-c3cncnc3)c2)(C(=O)NC2CCCCC2)CC1 : t
N[C@@H](Cc1cccs1)C(=O)N1CCC(Cc2ccc(-c3nnn[nH]3)cc2)(C(=O)NCC2CCCCC2)CC1 : t
N[C@@H](Cc1cccs1)C(=O)N1CCC(Cc2ccncc2)(C(=O)NC2CCCCC2)CC1 : t
N[C@@H](Cc1c[nH]cn1)C(=O)N1CCC(Cc2cccnc2)(C(=O)NC2CCCCC2)CC1 : f

[Q] Field: below-cutoff. Rule: recorded IC50 strictly less than 100 nM. Subject: `N[C@@H](Cc1cccs1)C(=O)N1CCC(Cc2cccc(-c3ccc(C(=O)O)cc3)c2)(C(=O)NC2CCCCC2)CC1`
[A] f

[Q] Field: below-cutoff. Rule: recorded IC50 strictly less than 100 nM. Subject: `N[C@@H](Cc1ccco1)C(=O)N1CCC(Cc2ccc(-c3ccccc3)cc2)(C(=O)NC2CCCCC2)CC1`
[A] f

[Q] Field: below-cutoff. Rule: recorded IC50 strictly less than 100 nM. Subject: `N[C@@H](Cc1cccs1)C(=O)N1CCC(Cc2ccc(-c3ccc(C(F)(F)F)cc3)cc2)(C(=O)NC2CCCCC2)CC1`
[A] f

[Q] Field: below-cutoff. Rule: recorded IC50 strictly less than 100 nM. Subject: `N[C@@H](Cc1c[nH]cn1)C(=O)N1CCC(Cc2ccc([N+](=O)[O-])cc2)(C(=O)NC2CCCCC2)CC1`
[A] f

[Q] Field: below-cutoff. Rule: recorded IC50 strictly less than 100 nM. Subject: `CC[C@H](N)C(=O)N1CCC(Cc2ccc(Cl)cc2)(C(=O)OCC2CCCCC2)CC1`
[A] f

[Q] Field: below-cutoff. Rule: recorded IC50 strictly less than 100 nM. Subject: `COC[C@H](N)C(=O)N1CCC(Cc2ccc(-c3ccccc3)cc2)(C(=O)NC2CCCCC2)CC1`
[A] f

[Q] Field: below-cutoff. Rule: recorded IC50 strictly less than 100 nM. Subject: `CC[C@H](N)C(=O)N1CCC(Cc2ccncc2)(C(=O)OCC2CCCCC2)CC1`
[A] f

[Q] Field: below-cutoff. Rule: recorded IC50 strictly less than 100 nM. Subject: `CS(=O)(=O)Nc1ccc(CC2(C(=O)NC3CCCCC3)CCN(C(=O)[C@@H](N)Cc3cccs3)CC2)cc1`
[A] t

[Q] Field: below-cutoff. Rule: recorded IC50 strictly less than 100 nM. Subject: `N[C@@H](Cc1cccs1)C(=O)N1CCC(Cc2ccc(F)cc2F)(C(=O)OCC2CCCCC2)CC1`
[A] f

[Q] Field: below-cutoff. Rule: recorded IC50 strictly less than 100 nM. Subject: N[C@@H](Cc1cccs1)C(=O)N1CCC(Cc2ccc(-c3ccccc3)cc2)(C(=O)NCC2CCCCC2)CC1 [Compound 3, hydrochloride]
[A] t

[Q] Field: below-cutoff. Rule: recorded IC50 strictly less than 100 nM. Subject: `N[C@@H](Cc1cccs1)C(=O)N1CCC(Cc2ccc(Cl)cc2)(C(=O)OCC2CCCCC2)CC1`
[A] f

[Q] Field: below-cutoff. Rule: recorded IC50 strictly less than 100 nM. Subject: `N[C@@H](Cc1c[nH]cn1)C(=O)N1CCC(Cc2cccnc2)(C(=O)OCC2CCCCC2)CC1`
[A] f

---

target_or_test_system: recombinant human DPP-1 (Cathepsin C) (Homo sapiens, UniProt P53634)
Sequence (P53634 25-463): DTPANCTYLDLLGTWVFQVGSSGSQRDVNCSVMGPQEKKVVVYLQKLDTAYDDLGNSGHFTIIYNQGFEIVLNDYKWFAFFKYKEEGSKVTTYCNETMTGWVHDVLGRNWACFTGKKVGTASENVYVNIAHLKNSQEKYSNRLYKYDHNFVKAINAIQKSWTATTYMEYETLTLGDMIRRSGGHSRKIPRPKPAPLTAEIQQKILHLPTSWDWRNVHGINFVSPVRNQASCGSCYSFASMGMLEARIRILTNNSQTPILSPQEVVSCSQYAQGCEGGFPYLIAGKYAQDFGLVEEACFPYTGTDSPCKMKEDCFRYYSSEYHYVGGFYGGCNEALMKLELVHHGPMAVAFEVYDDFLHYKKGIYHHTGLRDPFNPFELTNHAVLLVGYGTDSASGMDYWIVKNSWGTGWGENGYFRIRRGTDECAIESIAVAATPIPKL
assay_details: DPP-1 Inhibition Assay (In Vitro), fluorogenic substrate GR-AMC
stated_conditions: 0.15 nM DPP-1, 10 uM GR-AMC, pH 7.0, room temperature; average value where tested multiple times
pIC50: −log10 of the molar value.
Rule: YES for pIC50 not less than 6, NO for anything less.

These solved cases illustrate the format of a correct answer.
COC(=O)C1(Cc2ccc(-c3ccccc3)cc2)CCN(C(=O)[C@@H](N)Cc2cccs2)CC1 : NO
NC(=O)c1ccc(CC2(C(=O)NC3CCCCC3)CCN(C(=O)[C@@H](N)Cc3cccs3)CC2)cc1 : YES
CCSCC[C@H](N)C(=O)N1CCC(Cc2ccc(-c3ccccc3)cc2)(C(=O)NCC2CCCCC2)CC1 : NO
CC(=O)Nc1cccc(-c2ccc(CC3(C(=O)NC4CCCCC4)CCN(C(=O)[C@@H](N)Cc4cccs4)CC3)cc2)c1 : YES
N[C@@H](Cc1cccs1)C(=O)N1CCC(Cc2cccc(-c3cccc(C(=O)O)c3)c2)(C(=O)NC2CCCCC2)CC1 : YES

[Q] Record `N[C@@H](Cc1cccs1)C(=O)N1CCC(Cc2ccc(-c3cccnc3Cl)cc2)(C(=O)NC2CCCCC2)CC1` ; criterion: pIC50 no lower than 6. Met?
[A] YES

[Q] Record `CSCC[C@H](N)C(=O)N1CCC(Cc2ccc(I)cc2)(C(=O)NC2CCCCC2)CC1` ; criterion: pIC50 no lower than 6. Met?
[A] YES

[Q] Record `N[C@@H](Cc1c[nH]cn1)C(=O)N1CCC(Cc2ccc(F)cc2F)(C(=O)OCC2CCCCC2)CC1` ; criterion: pIC50 no lower than 6. Met?
[A] NO

[Q] Record `N[C@@H](Cc1cccs1)C(=O)N1CCC(Cc2ccc(-c3ccccc3)cc2)(C(=O)N2CCCCC2)CC1` ; criterion: pIC50 no lower than 6. Met?
[A] YES

[Q] Record `N[C@@H](Cc1cccs1)C(=O)N1CCC(C(=O)NC2CCCCC2)(c2ccccc2)CC1` ; criterion: pIC50 no lower than 6. Met?
[A] YES

[Q] Record `N[C@@H](Cc1cccs1)C(=O)N1CCC(Cc2ccc(C(=O)O)cc2)(C(=O)NC2CCCCC2)CC1` ; criterion: pIC50 no lower than 6. Met?
[A] YES

[Q] Record N#Cc1ccc(-c2ccc(CC3(C(=O)NC4CCCCC4)CCN(C(=O)[C@@H](N)Cc4cccs4)CC3)cc2)cc1 [Compound 51] ; criterion: pIC50 no lower than 6. Met?
[A] YES

---

target_or_test_system: recombinant human DPP-1 (Cathepsin C) (Homo sapiens, UniProt P53634)
assay_details: DPP-1 Inhibition Assay (In Vitro), fluorogenic substrate GR-AMC
stated_conditions: 0.15 nM DPP-1, 10 uM GR-AMC, pH 7.0, room temperature; average value where tested multiple times
pIC50: −log10 of the molar value.
Rule: true (1) for pIC50 not less than 7, false (0) for anything less.

[Q] Record N[C@@H](Cc1cccs1)C(=O)N1CCC(Cc2ccc(-c3cccnc3)cc2)(C(=O)NC2CCCCC2)CC1 [Compound 50] ; criterion: pIC50 no lower than 7. Met?
[A] true (1)

[Q] Record CC[C@H](N)C(=O)N1CCC(Cc2ccc(-c3ccccc3)cc2)(C(=O)NCC2CCCCC2)CC1 [Compound 5] ; criterion: pIC50 no lower than 7. Met?
[A] false (0)

[Q] Record N[C@@H](Cc1cccs1)C(=O)N1CCC(Cc2ccc(C(=O)N3CCOCC3)cc2)(C(=O)NC2CCCCC2)CC1 [Compound 57] ; criterion: pIC50 no lower than 7. Met?
[A] true (1)

[Q] Record N[C@@H](Cc1cc(Br)cs1)C(=O)N1CCC(Cc2ccc(I)cc2)(C(=O)NC2CCCCC2)CC1 [Compound 92] ; criterion: pIC50 no lower than 7. Met?
[A] false (0)

[Q] Record COC(=O)[C@H]1CC[C@H](CNC(=O)C2(c3ccccc3)CCN(C(=O)[C@@H](N)Cc3cccs3)CC2)CC1 [Compound 110] ; criterion: pIC50 no lower than 7. Met?
[A] false (0)

---

target_or_test_system: recombinant human DPP-1 (Cathepsin C) (Homo sapiens, UniProt P53634)
assay_details: DPP-1 Inhibition Assay (In Vitro), fluorogenic substrate GR-AMC
stated_conditions: 0.15 nM DPP-1, 10 uM GR-AMC, pH 7.0, room temperature; average value where tested multiple times
pIC50: −log10 of the molar value.
Response field class: enum, chosen by comparing pIC50 against group A = under 6, group B = from 6 up to 7, group C = 7 and over

These solved cases illustrate the format of a correct answer.
CC[C@H](N)C(=O)N1CCC(Cc2ccc(C#N)cc2)(C(=O)OCC2CCCCC2)CC1 : group A
N[C@@H](Cc1cccs1)C(=O)N1CCC(Cc2ccc(-c3ccccc3)cc2)(C(=O)O)CC1 : group A
N[C@@H](Cc1cccs1)C(=O)N1CCC(Cc2ccc(C(F)(F)F)cc2)(C(=O)OCC2CCCCC2)CC1 : group B
CC[C@H](N)C(=O)N1CCC(Cc2ccncc2)(C(=O)NC2CCCCC2)CC1 : group A
N[C@@H](Cc1cccs1)C(=O)N1CCC(Cc2ccc(-c3cncnc3)cc2)(C(=O)NC2CCCCC2)CC1 : group C
COc1ncccc1-c1ccc(CC2(C(=O)NC3CCCCC3)CCN(C(=O)[C@@H](N)Cc3cccs3)CC2)cc1 : group C
CC[C@H](N)C(=O)N1CCC(C(=O)N(C)C2CCCCC2)(c2ccccc2)CC1 : group A
N[C@@H](Cc1ccc(Cl)s1)C(=O)N1CCC(Cc2ccc(-c3ccccc3)cc2)(C(=O)NC2CCCCC2)CC1 : group A

[Q] Which class holds `COc1ccc(-c2ccc(CC3(C(=O)NC4CCCCC4)CCN(C(=O)[C@@H](N)Cc4cccs4)CC3)cc2)cn1` ?
[A] group C

[Q] Which class holds `N[C@@H](Cc1cccs1)C(=O)N1CCC(Cc2cccnc2)(C(=O)NC2CCCCC2)CC1` ?
[A] group C

[Q] Which class holds `N[C@@H](Cc1cccs1)C(=O)N1CCC(C(=O)NCC2CCCCC2)(c2ccccc2)CC1` ?
[A] group C

[Q] Which class holds `N[C@@H](Cc1cccs1)C(=O)N1CCC(Cc2ccc(-c3ccc4c(c3)OCO4)cc2)(C(=O)NC2CCCCC2)CC1` ?
[A] group C

[Q] Which class holds `N[C@@H](Cc1cccs1)C(=O)N1CCC(Cc2ccccc2)(C(=O)OCC2CCCCC2)CC1` ?
[A] group B
